- Method description: protein stability index of a GFP-peptide fusion (yeast GPS) (PSI 1-4); higher = more stable; sorted into four equal gates, so the index is relative within each strain
- Condition notes: san1∆
Below, each of the sequences is paired with its reported protein stability index value.

{"Sequence content": "VFVNTGLQNVRKVRTKK [SWP82]", "Readout name": "protein stability index", "Measurement": 2.78}
{"Sequence content": "VKYINFGKTVKDGPFYT [RPC31]", "Readout name": "protein stability index", "Measurement": 2.35}
{"Sequence content": "TQAIADIVQYHLELYTS [PRE3]", "Readout name": "protein stability index", "Measurement": 1.77}
{"Sequence content": "IVTGNLVLDLLTWLSSF [IRR1]", "Readout name": "protein stability index", "Measurement": 2.05}
{"Sequence content": "SLMSSQNKLFYITNADD [SIR3]", "Readout name": "protein stability index", "Measurement": 3.07}

Task item: Tell me the measured protein stability index of SIYDKWTDPNLKSSLAD [RPN1] , please.
Reply: 2.88

Task item: // query protein stability index value for entry LVVIRFGRKNDRQCMIM [DIB1]
Reply: 2.33

Task item: Any idea what its protein stability index is? The sequence is PYLLPYILEAEAAAKEK [QCR7]
Reply: 1.5

Task item: Param item = GHVKPVRCVNCSKSIPK [RPS26A] ; retrieve measured protein stability index.
Reply: 2.16

Task item: Form field: reported protein stability index of KNWQNVGSLVVKSSMGP [RPL1A]
Reply: 2.7

Task item: Field request: protein stability index | item: SPSEFVDVAIPCNNRGK [RPS0A]
Reply: 1.61

Task item: What value of protein stability index has been reported for the following sequence? ALASIQTFNFDSFENYF [RPN12]
Reply: 2.51

Task item: Query: protein stability index; subject: WGEQKKAMSSRAGVSQV [RPB2]
Reply: 3.25

Task item: # lookup: protein stability index of PLRDNGLLDESPNRLRV [YML031W/NDC1]
Reply: 3.15

###

- Method description: protein stability index of a GFP-peptide fusion (yeast GPS) (PSI 1-4); higher = more stable; sorted into four equal gates, so the index is relative within each strain
- Condition notes: pdr5∆
Label label 1 when protein stability index >= 3; otherwise label 0.

Known results for sequences:
{"Sequence content": "QLVLRGLLSQAIGCIER [YJR042W/NUP85]", "Assigned class": "label 0"}
{"Sequence content": "CNSIINKLGALKTNFET [RPB11]", "Assigned class": "label 0"}
{"Sequence content": "AELIPELYSFQQLVDSE [SNF12]", "Assigned class": "label 0"}

Task item: # check: protein stability index of EEDDEGELEQAQAWINL [RPN7] is greater than or equal to 3
Reply: label 1

Task item: Check this sequence for protein stability index at or above 3: DGTGVRVIVAGTLDINP [FAS1]
Reply: label 0

Task item: Threshold query (protein stability index >= 3) on RKPILLPDPKPLPLDLN [ITC1]
Reply: label 0

Task item: Confirm if protein stability index reported for the sequence GSNQQSSTGGGLFGNKP [YGR119C/NUP57] is 3 or above.
Reply: label 1

Task item: Dear colleague, could you confirm whether DAELMADEEEEIVDTYQ [ISW2] has protein stability index at or above 3?
Reply: label 0

Task item: Is reported protein stability index greater than or equal to 3 here: SSSPLAMSETLSKVSLL [PRE8]
Reply: label 0
